# pEC50 annotations
# System: beta amyloid 40
# assay overview: Aβ40/42 ELISA Assay: Aβ40
# Type: cell-based
# measurement context: Cricetulus griseus; CHO cells carrying the APP-REP-NL plasmid, 22 hours, sandwich ELISA of medium
pEC50: −log10 of the molar value.

compound | pEC50
O=S(=O)(NC(CO)C(C(F)(F)F)C(F)(F)F)c1ccc(F)cc1F (centres unmarked) | 5.01
C[C@@H]([C@@H](CO)NS(=O)(=O)c1ccc(C(F)(F)F)cc1)C(F)(F)F | 5.85
CCCc1ccc(S(=O)(=O)NC(CO)C(C(F)(F)F)C(F)(F)F)cc1 (centres unmarked) | 4.74
C[C@@H]([C@@H](CO)NS(=O)(=O)c1ccc(Cl)c(Cl)c1)C(F)(F)F | 5.29
O=S(=O)(NC(CO)C(C(F)(F)F)C(F)(F)F)c1cccc(Br)c1 (centres unmarked) | 4.70
